test system: H1N1 A/PR/8/1934; settings: A/PR/8/1934, 48 h, 1 μM
Bridge positions count the residues as written; N and C are the ends. Square brackets hold non-standard residues; d marks the D form. Peptide text beside a SMILES is read from it.
MEASUREMENT_KIND: % Inhibition
Respond with a number, then the unit of measure.

// % Inhibition lookup, key: CC[C@@H](C)[C@H]1NC(=O)[C@@H](Cc2ccccc2)NC(=O)[C@@H]([C@H](C)O)NC(=O)[C@@H](Cc2ccccc2)NC(=O)[C@@H](Cc2c[nH]c3ccccc23)NC(=O)[C@@H](Cc2c[nH]c3ccccc23)NC(=O)[C@H](NC(=O)[C@H](CCCCN)NC(=O)[C@H](CCCCN)NC(=O)[C@H](CCCNC(=N)N)NC(=O)[C@@H](N)CCCNC(=N)N)CSSC[C@H](C(=O)O)NC(=O)[C@@H](CC(C)C)NC1=O [PSP VI A10, H-RRKKcwwftfilc-OH] (H-RRKK[dC][dW][dW][dF][dT][dF][dI][dL][dC]-OH; disulfide 5-13)
48%

====

tested on: H1N1 A/PR/8/1934; conditions: A/PR/8/1934, 48 h, 1 μM
Bridge positions count the residues as written; N and C are the ends. Square brackets hold non-standard residues; d marks the D form. Peptide text beside a SMILES is read from it.
% Inhibition of 60% or higher: YES. Under 60%: NO.

Worked examples follow.
CC[C@@H](C)[C@H]1NC(=O)[C@@H](Cc2ccccc2)NC(=O)[C@@H]([C@H](C)O)NC(=O)[C@@H](Cc2ccccc2)NC(=O)[C@@H](Cc2c[nH]c3ccccc23)NC(=O)[C@@H](Cc2c[nH]c3ccccc23)NC(=O)[C@H](NC(=O)[C@H](CCCCN)NC(=O)[C@H](CCCCN)NC(=O)[C@H](CCCNC(=N)N)NC(=O)[C@@H](N)CCCNC(=N)N)CSSC[C@H](C(=O)O)NC(=O)[C@@H](CCSC)NC1=O [PSP VI A11, H-RRKKcwwftfimc-OH] (H-RRKK[dC][dW][dW][dF][dT][dF][dI][dM][dC]-OH; disulfide 5-13) = YES
CC[C@@H](C)[C@H]1NC(=O)[C@@H](Cc2ccccc2)NC(=O)[C@@H]([C@H](C)O)NC(=O)[C@@H](Cc2ccccc2)NC(=O)[C@@H](Cc2c[nH]c3ccccc23)NC(=O)[C@@H](Cc2c[nH]c3ccccc23)NC(=O)[C@H](NC(=O)[C@H](CCCCN)NC(=O)[C@H](CCCCN)NC(=O)[C@H](CCCNC(=N)N)NC(=O)[C@@H](N)CCCNC(=N)N)CSSC[C@H](C(=O)O)NC(=O)[C@@H](Cc2ccc(O)cc2)NC1=O [PSP VI A20, H-RRKKcwwftfiyc-OH] (H-RRKK[dC][dW][dW][dF][dT][dF][dI][dY][dC]-OH; disulfide 5-13) = NO
CC[C@@H](C)[C@H]1NC(=O)[C@@H](Cc2ccccc2)NC(=O)[C@@H]([C@H](C)O)NC(=O)[C@@H](Cc2ccccc2)NC(=O)[C@@H](Cc2c[nH]c3ccccc23)NC(=O)[C@@H](CCC(N)=O)NC(=O)[C@H](NC(=O)[C@H](CCCCN)NC(=O)[C@H](CCCCN)NC(=O)[C@H](CCCNC(=N)N)NC(=O)[C@@H](N)CCCNC(=N)N)CSSC[C@H](C(=O)O)NC(=O)[C@@H](CC(N)=O)NC1=O [PSP V A14, H-RRKKcqwftfinc-OH] (H-RRKK[dC][dQ][dW][dF][dT][dF][dI][dN][dC]-OH; disulfide 5-13) = NO

Now turn to the next compound.
Exam item: decide whether the reported % Inhibition for CC[C@@H](C)[C@H]1NC(=O)[C@@H](Cc2ccccc2)NC(=O)[C@@H]([C@H](C)O)NC(=O)[C@@H](Cc2ccccc2)NC(=O)[C@@H](Cc2c[nH]c3ccccc23)NC(=O)[C@@H](Cc2c[nH]c3ccccc23)NC(=O)[C@H](NC(=O)[C@H](CCCCN)NC(=O)[C@H](CCCCN)NC(=O)[C@H](CCCNC(=N)N)NC(=O)[C@@H](N)CCCNC(=N)N)CSSC[C@H](C(=O)O)NC(=O)[C@@H](CCCCN)NC1=O [PSP VI A9, H-RRKKcwwftfikc-OH] (H-RRKK[dC][dW][dW][dF][dT][dF][dI][dK][dC]-OH; disulfide 5-13) is at least 60%.
NO

====

test system: H1N1 A/PR/8/1934; details: A/PR/8/1934, 48 h, 1 μM
Bridge positions count the residues as written; N and C are the ends. Square brackets hold non-standard residues; d marks the D form. Peptide text beside a SMILES is read from it.
MEASUREMENT_KIND: % Inhibition

Need % Inhibition of CC[C@@H](C)[C@H]1NC(=O)[C@@H](Cc2ccccc2)NC(=O)[C@@H]([C@H](C)O)NC(=O)[C@@H](Cc2ccccc2)NC(=O)[C@@H](Cc2c[nH]c3ccccc23)NC(=O)[C@H]2CCCN2C(=O)[C@H](NC(=O)[C@H](CCCCN)NC(=O)[C@H](CCCCN)NC(=O)[C@H](CCCNC(=N)N)NC(=O)[C@@H](N)CCCNC(=N)N)CSSC[C@H](C(=O)O)NC(=O)[C@@H](CC(N)=O)NC1=O [PSP V A13, H-RRKKcpwftfinc-OH] (H-RRKK[dC][dP][dW][dF][dT][dF][dI][dN][dC]-OH; disulfide 5-13) , thanks.
<20%

====

test system: H1N1 A/PR/8/1934; details: A/PR/8/1934, 48 h
Bridge positions count the residues as written; N and C are the ends. Square brackets hold non-standard residues; d marks the D form. Peptide text beside a SMILES is read from it.
Recorded IC50 for the following compounds
State the result as a value with its unit after it.

Examples with answers:
CC[C@@H](C)[C@H]1NC(=O)[C@@H](Cc2ccccc2)NC(=O)[C@@H]([C@H](C)O)NC(=O)[C@@H](Cc2ccccc2)NC(=O)[C@@H](Cc2c[nH]c3ccccc23)NC(=O)[C@@H]([C@H](C)O)NC(=O)[C@H](NC(=O)[C@H](CCCCN)NC(=O)[C@H](CCCCN)NC(=O)[C@H](CCCNC(=N)N)NC(=O)[C@@H](N)CCCNC(=N)N)CSSC[C@H](C(=O)O)NC(=O)[C@@H](CC(N)=O)NC1=O [PSP IV A17, H-RRKKctwftfinc-OH] (H-RRKK[dC][dT][dW][dF][dT][dF][dI][dN][dC]-OH; disulfide 5-13) = 260 nM
CC[C@@H](C)[C@H]1NC(=O)[C@@H](Cc2ccccc2)NC(=O)[C@@H](Cc2ccccc2)NC(=O)[C@@H](Cc2ccccc2)NC(=O)[C@@H](Cc2c[nH]c3ccccc23)NC(=O)[C@@H]([C@H](C)O)NC(=O)[C@H](NC(=O)[C@H](CCCCN)NC(=O)[C@H](CCCCN)NC(=O)[C@H](CCCNC(=N)N)NC(=O)[C@@H](N)CCCNC(=N)N)CSSC[C@H](C(=O)O)NC(=O)[C@@H](CC(N)=O)NC1=O [PSP IV A5, H-RRKKctwfffinc-OH] (H-RRKK[dC][dT][dW][dF][dF][dF][dI][dN][dC]-OH; disulfide 5-13) = 400 nM

Shift focus to the following entry.
Recorded IC50 of CC[C@@H](C)[C@H]1NC(=O)[C@@H](Cc2ccccc2)NC(=O)[C@@H](CCCNC(=N)N)NC(=O)[C@@H](Cc2ccccc2)NC(=O)[C@@H](Cc2c[nH]c3ccccc23)NC(=O)[C@@H]([C@H](C)O)NC(=O)[C@H](NC(=O)[C@H](CCCCN)NC(=O)[C@H](CCCCN)NC(=O)[C@H](CCCNC(=N)N)NC(=O)[C@@H](N)CCCNC(=N)N)CSSC[C@H](C(=O)O)NC(=O)[C@@H](CC(N)=O)NC1=O [PSP III B5, H-RRKKctwfrfinc-OH] (H-RRKK[dC][dT][dW][dF][dR][dF][dI][dN][dC]-OH; disulfide 5-13) , please.
1200 nM

====

tested on: H1N1 A1/Malaysia/302/1954; details: A1/Malaysia/302/1954, 48 h, 10 μM
Bridge positions count the residues as written; N and C are the ends. Square brackets hold non-standard residues; d marks the D form. Peptide text beside a SMILES is read from it.
Each entry below carries its reported % inhibition H1N1.
Field format: number, assumed %, no unit text.

CC[C@@H](C)[C@H]1NC(=O)[C@@H](Cc2ccccc2)NC(=O)[C@@H]([C@H](C)O)NC(=O)[C@@H](Cc2ccccc2)NC(=O)[C@@H](Cc2c[nH]c3ccccc23)NC(=O)[C@@H]([C@H](C)O)NC(=O)[C@H](NC(=O)[C@H](CCCCN)NC(=O)[C@H](CCCCN)NC(=O)[C@H](CCCNC(=N)N)NC(=O)[C@@H](N)CCCNC(=N)N)CSSC[C@H](C(=O)O)NC(=O)[C@@H](CC(N)=O)NC1=O [PSP IV A17, H-RRKKctwftfinc-OH] (H-RRKK[dC][dT][dW][dF][dT][dF][dI][dN][dC]-OH; disulfide 5-13) = 91

Continue with the next compound.
Entry CC[C@@H](C)[C@H]1NC(=O)[C@@H](Cc2ccccc2)NC(=O)[C@@H](Cc2c[nH]cn2)NC(=O)[C@@H](Cc2ccccc2)NC(=O)[C@@H](Cc2c[nH]c3ccccc23)NC(=O)[C@@H]([C@H](C)O)NC(=O)[C@H](NC(=O)[C@H](CCCCN)NC(=O)[C@H](CCCCN)NC(=O)[C@H](CCCNC(=N)N)NC(=O)[C@@H](N)CCCNC(=N)N)CSSC[C@H](C(=O)O)NC(=O)[C@@H](CC(N)=O)NC1=O [PSP IV A7, H-RRKKctwfhfinc-OH] (H-RRKK[dC][dT][dW][dF][dH][dF][dI][dN][dC]-OH; disulfide 5-13) , system H1N1 A1/Malaysia/302/1954: what % inhibition H1N1 was measured?
68
